assay.comment: growth suppression of beta-catenin knockout HCT116, pilot screen, human colon tumor cells (AID 823);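 also: 0% = wells killed by 20 µM Hyamine and 100% = untreated DMSO cell wells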
assay.context: CellTiter-Glo, 60 h, at 10 µM, hits give low values
Inconclusive results are not listed.
measured.metric: viability (%)
Lab book: enter the figure in %, no units written.

// below: answered compounds
>>> measurement("COc1ccc(OC)c(Nc2cc(C)nc3nc(C)nn23)c1")
65.5
>>> measurement("CN(c1ccccc1)S(=O)(=O)c1ccc(C(=O)Nc2nccs2)cc1")
84.8
>>> measurement("O=C(CNC(=O)Cn1ccc2ccccc2c1=O)NCCCN1CCN(c2cccc(Cl)c2)CC1")
57.3
>>> measurement("Cn1c(Cn2c(=O)sc3ccccc32)nnc1SCC(=O)NCc1ccccc1Cl")
100
>>> measurement("Cn1c(=O)[nH]c(=O)c2c1nc(SCC(=O)Nc1ccccc1)n2Cc1ccccc1")
92

Assign viability to the following record: CC1CCCN(c2nc3c(c(=O)n(C)c(=O)n3C)n2Cc2ccccc2)C1 (stereo unspecified)
85.9

Look up and report measured viability for this entry: "CCC(=O)c1cc(F)c(N2CCN(S(=O)(=O)c3ccccc3)CC2)cc1C"
59.2

Read off the recorded viability for "Cc1ccc2c(c1)N(CCCC(=O)NCc1cccnc1)C(=O)CO2"
95.6

Note down viability recorded for "Cc1nc(SCC(=O)Nc2cccc(Cl)c2)n[nH]1"
97

Could you please provide reported viability for "O=C(CN1CCN(Cc2ccccc2F)C1=O)NCCN1CCOCC1" ? Thanks!
109

Tell me measured viability for "c1ccc(-c2csc3nnc(SCc4ccc5c(c4)OCO5)n23)cc1" please.
93.2

----------
assay.target: Receptor tyrosine-protein kinase erbB-2 (Homo sapiens)
assay.comment: reducers of endogenous Her2 protein level, primary screen, SKBR3 breast tumor cells, AlphaScreen, ATP viability (AID 461);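 also: lower value means less Her2 protein in the cells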
assay.context: 18-24 h, at 10 µM, hits give low values
measured.metric: Her2 level (%)
Please respond with the number in % and leave the unit unwritten.

Example compounds with recorded Her2 level:
>>> measurement("C=CCn1c(SCc2ccc(C#N)cc2)nnc1-c1cccc(Cl)c1")
86
>>> measurement("O=C(CSc1nccn1-c1cccc(Cl)c1)NC1CCCC1")
86
>>> measurement("CCCn1c(O)c(CN2CCCC(C)C2)c(C)c(C#N)c1=O (stereo not drawn)")
87.5
>>> measurement("Cc1ncc(CO)c2c1OC(C)(C)OC2")
104
>>> measurement("COc1ccc(C2CC(=O)c3c(C)nc(N4CCN(c5ccccc5)CC4)nc3C2)cc1 (stereo not drawn)")
88
>>> measurement("CCOC(=O)c1[nH]c(C)c(C(=O)Nc2ccc(C)c(Cl)c2)c1C")
88
>>> measurement("COc1ccc(C2CC(C(F)(F)F)n3ncc(C(=O)NCc4cccnc4)c3N2)cc1OC (stereo not drawn)")
93
>>> measurement("COCCn1c(C)cc(C(=O)COC(=O)CCN2C(=O)c3ccccc3C2=O)c1C")
98.5
>>> measurement("CC1CN=C(N(C(=O)Nc2ccccc2)c2ccc(S(=O)(=O)N3CCOCC3)cc2)S1 (stereo not drawn)")
108
>>> measurement("O=C(CSc1ncnc2ccccc12)NCCCO")
80

Specify Her2 level for COc1ccc(N2C(N)=C(C#N)C(c3cccnc3)C3=C2CC(C)(C)CC3=O)cc1 (stereo not drawn) and stop.
90

Note down Her2 level recorded for "O=C(CCc1nc2ccccc2[nH]1)Nc1ccc2c(c1)OCO2"
126

----------
assay.comment: growth suppression of yeast trafficking mutant, preliminary HTS, modulators of trafficking downstream of Golgi apparatus project, 1536-format plate, OD 615 nm (AID 637)
assay.context: yeast transport mutant growth, absorbance 615 nm, 18 h; hits give high values
measured.metric: inhibition (%)
Just the number please, in %, no unit attached.

Reference set, count: 4
>>> measurement("CCc1nc2sc3c(c2c(=O)o1)CCCC3")
-9.84
>>> measurement("O=C1CN(C(=O)CN2CCCC2)C(c2ccccc2)c2cc(Br)ccc2N1 (centres undefined)")
1.61
>>> measurement("c1ccc2c(c1)CNC1(CCCCC1)C2")
1.27
>>> measurement("Nc1c(C(=O)NCCc2ccccc2)nnn1Cc1ccccc1")
-1.45

Read off the recorded inhibition for Cc1cc2n(n1)C(c1ccccc1)Nc1ccccc1-2 (centres undefined)
-6.13

For "CC(=O)N1CCC2(CC1)CC(=O)c1cc(OCC(=O)NCc3ccc(C)cc3)ccc1O2" , write its inhibition.
0.91

Give recorded inhibition. COc1cc(N2C(=O)CSC23C(=O)Nc2ccccc23)cc(OC)c1OC (centres undefined)
-5.81

# return recorded inhibition for entry CCOC(=O)c1cc(C)sc1N1C(=O)C2C3C=CC(C3)C2C1=O (centres undefined)
-0.95

Hello, please tell me recorded inhibition for this one: "C=C(c1cccc2ccccc12)P(=O)(O)O"
4.75

Kindly indicate its recorded inhibition. Item: "CCOCCCNC(=O)c1c[nH]c2ccc(S(=O)(=O)Nc3cccc(OC)c3)cc2c1=O"
-8.71

Determine from records and report inhibition for COCCN1C(=O)c2oc3c(C)cc(C)cc3c(=O)c2C1c1cccc(O)c1 (centres undefined)
-3.23

Specify measured inhibition for "COc1ccc(CC(=O)Nc2ccc(-c3nnc(-c4ccc(C)cc4)o3)cc2)cc1" .
-1.75

Write down inhibition measured for item "Cc1cc(C(F)F)n2ncc(C(=O)NC3CCCCCC3)c2n1"
8.69

Look up and state reported inhibition for "COCCNc1nc(C(C)(C)C)nc2c1nnn2Cc1ccccc1Cl"
-3.33

Tell us which inhibition value is on record for "O=C(O)c1cccc(S(=O)(=O)N2CCOCC2)c1"
11.3

Determine its reported inhibition: "COc1c(Br)cc2c(C)c(C(=O)O)oc2c1Br"
-4.59

----------
assay.comment: OD615 S. cerevisiae growth inhibition, permissive medium, pilot counter-assay, permissive growth control for S. cerevisiae lifespan shortening project (AID 705)
assay.context: OD615, 24 h, at 10 µM, hits give high values
measured.metric: growth inhibition (%)
The response must be a number in % with no trailing unit.

Example compounds with recorded growth inhibition:
>>> measurement("Cc1ccccc1C(=O)N1CCC(C(=O)Nc2cccc(F)c2)CC1")
-7.2
>>> measurement("COCCCNC(=O)c1cn(C)c(=O)c2cc(OC)c(OC)cc12")
-8.69
>>> measurement("CCCn1cc(S(=O)(=O)CC(=O)Nc2ccc(OC)cc2OC)c2ccccc21")
-7.84
>>> measurement("COc1ccc(C2CC(C(F)(F)F)n3nc(C(=O)O)c(Cl)c3N2)cc1OC (stereo unspecified)")
-2.51
>>> measurement("CCOC(=O)CCc1c(C)c2c(C)nn(-c3ccccc3)c2[nH]c1=O")
-2.26

Check the records and state growth inhibition for CC(=O)c1ccc(N2CCN(C(=O)c3ccc(NC(=O)C4CCCO4)cc3)CC2)cc1 (stereo unspecified)
-23.3

Given the compound "CCC(=O)NCCn1c(C)cc2ccccc21" , write its reported growth inhibition.
8.84

Give growth inhibition for the following compound: "COCCOC(=O)c1c(C)oc2ccc(OCC=C(C)C)cc12"
-0.275

Determine its reported growth inhibition: "COc1cccc(OCCCCSc2ncccn2)c1"
0.33

For the compound CC12CN3CC(C)(CN(C1)C3c1ccc(Br)cc1)C2=O (stereo unspecified) , report growth inhibition.
-1.9

Please report growth inhibition for the following compound: "Cc1nc2nc(SCC(=O)N3CCOCC3)nn2c(C)c1Cc1ccccc1"
-0.01

----------
assay.comment: growth inhibitors of H69AR lung tumor, primary screen, human, duplicate replicates (AID 580);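 also: 100% = mean luminescence of untreated wells and 0% = no signal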
assay.context: H69AR lung tumor cells viability, ATP luminescence, 72 h; at 10 µM; hits give low values
Listed here are compounds together with their documented viability.
Provide only the numeric value, understood in %.

For CCC(NC(C)C)C(O)c1ccc(O)c2[nH]c(=O)ccc12 (stereo unspecified) , write its viability.
94.4

Give a short answer stating reported viability for "Cc1cc(C)c2c(C)nn(C3CCCCC3)c2n1" .
95.5

Report viability for "COCCn1c(C)cc(C(=O)COC(=O)CCN2C(=O)c3ccccc3C2=O)c1C"
96.6

----------
Each item that follows carries a reported Her2 level.
assay.target: Receptor tyrosine-protein kinase erbB-2 (Homo sapiens) (UniProt P04626)
Sequence (P04626 whole entry, looked up): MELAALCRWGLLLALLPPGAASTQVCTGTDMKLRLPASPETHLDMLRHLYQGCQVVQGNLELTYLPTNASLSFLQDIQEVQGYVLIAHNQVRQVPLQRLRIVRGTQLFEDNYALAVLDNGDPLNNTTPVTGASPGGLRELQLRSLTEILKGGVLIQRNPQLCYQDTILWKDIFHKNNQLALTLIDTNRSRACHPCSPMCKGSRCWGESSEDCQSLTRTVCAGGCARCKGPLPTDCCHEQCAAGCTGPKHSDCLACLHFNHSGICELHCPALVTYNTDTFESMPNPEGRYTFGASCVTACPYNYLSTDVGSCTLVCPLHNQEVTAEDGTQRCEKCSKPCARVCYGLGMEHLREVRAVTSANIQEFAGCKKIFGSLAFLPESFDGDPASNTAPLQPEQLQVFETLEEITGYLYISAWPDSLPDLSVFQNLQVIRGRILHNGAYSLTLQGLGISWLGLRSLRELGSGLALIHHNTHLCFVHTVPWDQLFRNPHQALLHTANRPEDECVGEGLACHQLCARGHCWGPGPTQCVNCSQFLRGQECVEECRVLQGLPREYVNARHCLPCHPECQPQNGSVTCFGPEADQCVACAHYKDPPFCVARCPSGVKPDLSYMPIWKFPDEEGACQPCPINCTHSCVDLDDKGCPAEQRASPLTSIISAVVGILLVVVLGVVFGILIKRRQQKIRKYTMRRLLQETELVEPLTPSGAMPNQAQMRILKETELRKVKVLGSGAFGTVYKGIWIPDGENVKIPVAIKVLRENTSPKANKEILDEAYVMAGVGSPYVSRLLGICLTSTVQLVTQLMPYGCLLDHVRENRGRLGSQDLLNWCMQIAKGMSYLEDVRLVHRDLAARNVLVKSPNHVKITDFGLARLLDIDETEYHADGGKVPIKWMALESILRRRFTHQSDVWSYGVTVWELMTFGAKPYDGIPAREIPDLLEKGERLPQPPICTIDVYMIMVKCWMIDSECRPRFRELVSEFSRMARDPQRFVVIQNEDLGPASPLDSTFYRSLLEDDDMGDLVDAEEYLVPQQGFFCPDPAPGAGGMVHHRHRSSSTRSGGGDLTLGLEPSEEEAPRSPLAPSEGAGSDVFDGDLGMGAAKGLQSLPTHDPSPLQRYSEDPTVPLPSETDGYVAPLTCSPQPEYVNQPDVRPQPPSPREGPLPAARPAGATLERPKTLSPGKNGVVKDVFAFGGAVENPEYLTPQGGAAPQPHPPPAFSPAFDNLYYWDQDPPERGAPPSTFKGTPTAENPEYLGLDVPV
assay.comment: reducers of endogenous Her2 protein level, primary screen, SKBR3 breast tumor cells, AlphaScreen, ATP viability (AID 461);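 also: lower value means less Her2 protein in the cells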
assay.context: 18-24 h, at 10 µM, hits give low values
Write the answer as a number in %, unit excluded.

Here's what some known entries look like.
>>> measurement("Cc1noc(NS(=O)(=O)c2ccc(N3C(=O)c4ccccc4C3=O)cc2)c1C")
98
>>> measurement("COC(=O)c1ccc(CNC(=O)COc2ccccc2Br)o1")
108
>>> measurement("CCCC(=O)Nc1ccc(OCC(O)CNC(C)C)c(C(C)=O)c1 (configuration not stated)")
121

Report Her2 level, nothing else, for this compound: "COc1ccc2cc(C#N)c(SCC(=O)N3CCCC3)nc2c1"
81

Report Her2 level, nothing else, for this compound: "O=C(Cn1cccc1C(=O)c1ccccc1)NCCN1CCOCC1"
89.5

Answer with the recorded Her2 level of "Nc1nc(F)nc2c1ncn2[C@@H]1O[C@H](CO)[C@@H](O)[C@@H]1O" only.
104

Write down Her2 level measured for item "O=C(O)Cc1cc(I)c(Oc2ccc(O)c(I)c2)c(I)c1"
106

Quick one: give measured Her2 level for "CN1CCN(C(=O)CCC(=O)c2ccc(F)cc2)CC1"
79.5

Using known records, supply Her2 level for "COc1ccc(C)cc1-n1nnnc1SCC(=O)Nc1cc(C)on1"
85

Fill in Her2 level for record "O=C(/C=C1\NC2(CCCC2)Cc2ccccc21)N1CCOCC1"
85

Give recorded Her2 level. "COc1ccc(Cn2c(CCCO)nc3ccccc32)cc1OC"
97.5

Give the reported Her2 level for this compound. "CC(=O)N1CCN(C(=O)COc2ccc(Br)cc2)CC1"
92.5

Hello, the source for this data is PubChem BioAssay, in case you need it.
